System: P. aeruginosa ATCC 27853
Type: cell-based, Pseudomonas aeruginosa
run.parameters: ATCC 27853
Non-standard residues stand in square brackets, D forms with d. Residues, ends and D or L forms follow the SMILES beside them. Dab = NCC[C@H](N)C(=O)O
outcome.measure: MIC P. aeruginosa ATCC 27853 (µg/mL)
State the answer as a number, implicitly in µg/mL.

Task: Missing value: MIC P. aeruginosa ATCC 27853, P. aeruginosa ATCC 27853, entry CC[C@H](C)[C@@H]1NC(=O)[C@H](Cc2c[nH]c3ccccc23)NC(=O)[C@H]([C@@H](C)O)NC(=O)[C@@H]2CCCN2C(=O)[C@H]2CCCN2C(=O)[C@H](CCN)NC(=O)[C@@H](C)NC(=O)[C@H](CCN)NC(=O)[C@H](CCN)NC(=O)[C@H](Cc2c[nH]c3ccccc23)NC(=O)[C@H](CCN)NC(=O)[C@H](CCN)NC(=O)[C@H](CCCCN)NC(=O)[C@H](CCN)NC1=O [Example 3] (cyclo(TWI[Dab]K[Dab][Dab]W[Dab][Dab][dA][Dab][dP]P)) . Fill in?
Result: 0.09

Task: Here is the next compound: CC[C@H](C)[C@@H]1NC(=O)[C@H](Cc2c[nH]c3ccccc23)NC(=O)[C@H]([C@@H](C)O)NC(=O)[C@@H]2CCCN2C(=O)[C@H]2CCCN2C(=O)[C@H](CCN)NC(=O)[C@H](C)NC(=O)[C@H](CCN)NC(=O)[C@H](CCN)NC(=O)[C@H](Cc2c[nH]c3ccccc23)NC(=O)[C@H](CCCCN)NC(=O)[C@H](CCN)NC(=O)[C@H](CCCCN)NC(=O)[C@H](CCN)NC1=O [Example 26] (cyclo(TWI[Dab]K[Dab]KW[Dab][Dab]A[Dab][dP]P))
Result: 0.08

====

Tested on: P. aeruginosa ATCC 27853
Type: cell-based, Pseudomonas aeruginosa
run.parameters: ATCC 27853
Non-standard residues stand in square brackets, D forms with d. Residues, ends and D or L forms follow the SMILES beside them. Ala(cPr) = N[C@@H](CC1CC1)C(=O)O; dDab = NCC[C@@H](N)C(=O)O; Dab = NCC[C@H](N)C(=O)O; Aib = CC(C)(N)C(=O)O
outcome.measure: MIC P. aeruginosa ATCC 27853 (µg/mL)
State the answer as a number, implicitly in µg/mL.

Task: Tell me the measured MIC P. aeruginosa ATCC 27853 of CC[C@H](C)[C@@H]1NC(=O)[C@H](Cc2c[nH]c3ccccc23)NC(=O)[C@H]([C@@H](C)O)NC(=O)[C@@H]2CCCN2C(=O)[C@H]2CCCN2C(=O)[C@H](CCN)NC(=O)C(C)(C)NC(=O)[C@H](CCN)NC(=O)[C@H](CCN)NC(=O)[C@H](Cc2c[nH]c3ccccc23)NC(=O)[C@H](CCN)NC(=O)[C@H](CCN)NC(=O)[C@H](CCCCN)NC(=O)[C@H](CCN)NC1=O [Example 5] (cyclo(TWI[Dab]K[Dab][Dab]W[Dab][Dab][Aib][Dab][dP]P)) , please.
Result: 0.08

Task: Here is the next compound: CC[C@H](C)[C@@H]1NC(=O)[C@H](Cc2c[nH]c3ccccc23)NC(=O)[C@H]([C@@H](C)O)NC(=O)[C@@H]2CCCN2C(=O)[C@H]2CCCN2C(=O)[C@H](CCN)NC(=O)[C@H](C)NC(=O)[C@H](CCN)NC(=O)[C@H](CCCCN)NC(=O)[C@H](Cc2c[nH]c3ccccc23)NC(=O)[C@H](CCN)NC(=O)[C@H](CCN)NC(=O)[C@H](CCCCN)NC(=O)[C@H](CCN)NC1=O [Example 27] (cyclo(TWI[Dab]K[Dab][Dab]WK[Dab]A[Dab][dP]P))
Result: 0.09

Task: Here is the next compound: CC[C@H](C)[C@@H]1NC(=O)[C@H](Cc2c[nH]c3ccccc23)NC(=O)[C@H]([C@@H](C)O)NC(=O)[C@@H]2CCCN2C(=O)[C@H]2CCCN2C(=O)[C@H](CCN)NC(=O)[C@H](CCC(=O)O)NC(=O)[C@H](CCN)NC(=O)[C@H](CCN)NC(=O)[C@H](Cc2c[nH]c3ccccc23)NC(=O)[C@H](CCN)NC(=O)[C@H](CCN)NC(=O)[C@H](CCCCN)NC(=O)[C@H](CCN)NC1=O [Example 15] (cyclo(TWI[Dab]K[Dab][Dab]W[Dab][Dab]E[Dab][dP]P))
Result: 0.50

Task: Here is the next compound: CC[C@H](C)[C@@H]1NC(=O)[C@H](Cc2c[nH]c3ccccc23)NC(=O)[C@H](C)NC(=O)[C@@H]2CCCN2C(=O)[C@H]2CCCN2C(=O)[C@H](CCN)NC(=O)[C@H](C(C)C)NC(=O)[C@H](CCN)NC(=O)[C@H](CCN)NC(=O)[C@H](Cc2c[nH]c3ccccc23)NC(=O)[C@H](CCN)NC(=O)[C@H](CCN)NC(=O)[C@H](CCN)NC(=O)[C@H](CCN)NC1=O [Example 23] (cyclo(AWI[Dab][Dab][Dab][Dab]W[Dab][Dab]V[Dab][dP]P))
Result: 1.00

Task: Here is the next compound: CC[C@H](C)[C@@H]1NC(=O)[C@H](Cc2c[nH]c3ccccc23)NC(=O)[C@H]([C@@H](C)O)NC(=O)[C@@H]2CCCN2C(=O)[C@H]2CCCN2C(=O)[C@H](CCN)NC(=O)[C@H]([C@@H](C)CC)NC(=O)[C@H](CCN)NC(=O)[C@H](CCN)NC(=O)[C@H](Cc2c[nH]c3ccccc23)NC(=O)[C@H](CCN)NC(=O)[C@H](CCN)NC(=O)[C@H](CCCCN)NC(=O)[C@H](CCN)NC1=O [Example 8] (cyclo(TWI[Dab]K[Dab][Dab]W[Dab][Dab]I[Dab][dP]P))
Result: 0.05

Task: Here is the next compound: CC[C@H](C)[C@@H]1NC(=O)[C@H](Cc2c[nH]c3ccccc23)NC(=O)[C@H]([C@@H](C)O)NC(=O)[C@@H]2CCCN2C(=O)[C@H]2CCCN2C(=O)[C@H](CCN)NC(=O)[C@H](C)NC(=O)[C@H](CCN)NC(=O)[C@H](CCN)NC(=O)[C@H](Cc2c[nH]c3ccccc23)NC(=O)[C@H](CCN)NC(=O)[C@@H](CCN)NC(=O)[C@H](CCCCN)NC(=O)[C@H](CCN)NC1=O [Example 41] (cyclo(TWI[Dab]K[dDab][Dab]W[Dab][Dab]A[Dab][dP]P))
Result: 0.02

Task: Here is the next compound: CC[C@H](C)[C@@H]1NC(=O)[C@H](Cc2c[nH]c3ccccc23)NC(=O)[C@H]([C@@H](C)O)NC(=O)[C@@H]2CCCN2C(=O)[C@H]2CCCN2C(=O)[C@H](CCN)NC(=O)[C@H](CC(N)=O)NC(=O)[C@H](CCN)NC(=O)[C@H](CCN)NC(=O)[C@H](Cc2c[nH]c3ccccc23)NC(=O)[C@H](CCN)NC(=O)[C@H](CCN)NC(=O)[C@H](CCCCN)NC(=O)[C@H](CCN)NC1=O [Example 38] (cyclo(TWI[Dab]K[Dab][Dab]W[Dab][Dab]N[Dab][dP]P))
Result: 0.09

Task: Here is the next compound: CC[C@H](C)[C@@H]1NC(=O)[C@H](Cc2c[nH]c3ccccc23)NC(=O)[C@H]([C@@H](C)O)NC(=O)[C@@H]2CCCN2C(=O)[C@H]2CCCN2C(=O)[C@H](CCN)NC(=O)[C@H](CC2CC2)NC(=O)[C@H](CCN)NC(=O)[C@H](CCN)NC(=O)[C@H](Cc2c[nH]c3ccccc23)NC(=O)[C@H](CCN)NC(=O)[C@H](CCN)NC(=O)[C@H](CCCCN)NC(=O)[C@H](CCN)NC1=O [Example 37] (cyclo(TWI[Dab]K[Dab][Dab]W[Dab][Dab][Ala(cPr)][Dab][dP]P))
Result: 0.06

Task: Here is the next compound: CC[C@H](C)[C@@H]1NC(=O)[C@H](Cc2c[nH]c3ccccc23)NC(=O)[C@H]([C@@H](C)O)NC(=O)[C@@H]2CCCN2C(=O)[C@H]2CCCN2C(=O)[C@H](CCN)NC(=O)[C@H](C)NC(=O)[C@H](CCN)NC(=O)[C@H](CCN)NC(=O)[C@H](Cc2c[nH]c3ccccc23)NC(=O)[C@H](CCN)NC(=O)[C@H](CCN)NC(=O)[C@H](CCCCN)NC(=O)[C@H](CCN)NC1=O [Example 1] (cyclo(TWI[Dab]K[Dab][Dab]W[Dab][Dab]A[Dab][dP]P))
Result: 0.03

====

Kindly state Hemolysis at 100 μg/ml for each of the entries shown.
Test system: human red blood cells (hRBC)
experimental.details: Hemolysis
Assay type: cell-based
run.parameters: 100
Non-standard residues stand in square brackets, D forms with d. Residues, ends and D or L forms follow the SMILES beside them. Cha = N[C@@H](CC1CCCCC1)C(=O)O; dDab = NCC[C@@H](N)C(=O)O; Nle = CCCC[C@H](N)C(=O)O; Orn = NCCC[C@H](N)C(=O)O; Dab = NCC[C@H](N)C(=O)O
Write your answer as a measured quantity: the number, then the unit.

Task: Tell me the measured Hemolysis at 100 μg/ml of CC[C@H](C)[C@@H]1NC(=O)[C@H](Cc2c[nH]c3ccccc23)NC(=O)[C@H]([C@@H](C)O)NC(=O)[C@@H]2CCCN2C(=O)[C@H]2CCCN2C(=O)[C@H](CO)NC(=O)[C@H](C)NC(=O)[C@H](CCN)NC(=O)[C@H](CCN)NC(=O)[C@H](Cc2c[nH]c3ccccc23)NC(=O)[C@H](CCN)NC(=O)[C@@H](CCN)NC(=O)[C@H](CCCN)NC(=O)[C@H](CCN)NC1=O [Example 49] (cyclo(TWI[Dab][Orn][dDab][Dab]W[Dab][Dab]AS[dP]P)) , please.
Result: 0.1%

Task: Here is the next molecule: CCCC[C@@H]1NC(=O)[C@H](CCN)NC(=O)[C@H](CCN)NC(=O)[C@H](Cc2c[nH]c3ccccc23)NC(=O)[C@H](CCN)NC(=O)[C@H](CCN)NC(=O)[C@H](CCCCN)NC(=O)[C@H](CCN)NC(=O)[C@H]([C@@H](C)CC)NC(=O)[C@H](Cc2c[nH]c3ccccc23)NC(=O)[C@H]([C@@H](C)O)NC(=O)[C@@H]2CCCN2C(=O)[C@H]2CCCN2C(=O)[C@H](CCN)NC1=O [Example 9] (cyclo(TWI[Dab]K[Dab][Dab]W[Dab][Dab][Nle][Dab][dP]P))
Result: 0.7%

Task: Here is the next molecule: C[C@@H]1NC(=O)[C@H](CCN)NC(=O)[C@H](CCN)NC(=O)[C@H](Cc2c[nH]c3ccccc23)NC(=O)[C@H](CCN)NC(=O)[C@H](CCN)NC(=O)[C@H](CCCCN)NC(=O)[C@H](CCN)NC(=O)[C@H](CC2CCCCC2)NC(=O)[C@H](Cc2c[nH]c3ccccc23)NC(=O)[C@H]([C@@H](C)O)NC(=O)[C@@H]2CCCN2C(=O)[C@H]2CCCN2C(=O)[C@H](CCN)NC1=O [Example 34] (cyclo(TW[Cha][Dab]K[Dab][Dab]W[Dab][Dab]A[Dab][dP]P))
Result: 0%

Task: Here is the next molecule: CC[C@H](C)[C@@H]1NC(=O)[C@H](Cc2c[nH]c3ccccc23)NC(=O)[C@H]([C@@H](C)O)NC(=O)[C@@H]2CCCN2C(=O)[C@H]2CCCN2C(=O)[C@H](CCN)NC(=O)[C@H](C)NC(=O)[C@H](CCN)NC(=O)[C@H](CCN)NC(=O)[C@H](Cc2c[nH]c3ccccc23)NC(=O)[C@H](CCCCN)NC(=O)[C@H](CCN)NC(=O)[C@H](CCCCN)NC(=O)[C@H](CCN)NC1=O [Example 26] (cyclo(TWI[Dab]K[Dab]KW[Dab][Dab]A[Dab][dP]P))
Result: 0.8%

Task: Here is the next molecule: CC[C@H](C)[C@@H]1NC(=O)[C@H](Cc2c[nH]c3ccccc23)NC(=O)[C@H]([C@@H](C)O)NC(=O)[C@@H]2CCCN2C(=O)[C@H]2CCCN2C(=O)[C@H](CCN)NC(=O)[C@H](CC(=O)O)NC(=O)[C@H](CCN)NC(=O)[C@H](CCN)NC(=O)[C@H](Cc2c[nH]c3ccccc23)NC(=O)[C@H](CCN)NC(=O)[C@H](CCN)NC(=O)[C@H](CCCCN)NC(=O)[C@H](CCN)NC1=O [Example 14] (cyclo(TWI[Dab]K[Dab][Dab]W[Dab][Dab]D[Dab][dP]P))
Result: 0.3%
